- SYSTEM NAME: pre-existing anti-scFv903 antibodies in human serum H46 (human)
- PROTOCOL NOTES: competition ADA bridging ELISA
Exercise: state measured signal change in competition ELISA (% reduction in OD) for each of the binders provided.
Expressed in %, but write only the number.

Data request: For the binder scFv 961 (scFv) scFv: EIVMTQSPSTLSASVGDRVIITCQASEIIHSWLAWYQQKPGKAPKLLIYLASTLASGVPSRFSGSGSGAEFTLTISSLQPDDFATYYCQNVYLASTNGANFGQGTKLTVLGGGGGSGGGGSGGGGSGGGGSEVQLVESGGGSVQPGGSLRLSCTASGFSLTDYYYMTWVRQAPGKGLEWVGFIDPDDDPYYATWAKGRFTISRDTSKNTVYLQMNSLRAEDTATYYCAGGDHNSGWGLDIWGQGTTVTVSS , give its measured signal change in competition ELISA (% reduction in OD) value.
Data returned: -40

Data request: For the binder scFv105 (scFv) scFv: DIVMTQSPSSLSASVGDRVTLTCTASQSVSNDVVWYQQRPGKAPKLLIYSAFNRYTGVPSRFSGRGYGTDFTLTISSLQPEDVAVYYCQQDYNSPRTFGQGTKLEVKRGGGGSGGGGSGGGGSSGGGSQVQLVQSGAEVKKPGASVKVSCTASGYTFTHYGMNWVRQAPGKGLEWMGWINTYTGEPTYADKFKDRFTFSLETSASTVYMELTSLTSDDTAVYYCARERGDAMDYWGQGTLVTVSS , give its measured signal change in competition ELISA (% reduction in OD) value.
Data returned: -67

Data request: For the binder scFv 791 (scFv) scFv: MEIVMTQSPSTLSASLGDRVIITCQSSQSVYGNIWMAWYQQKSGKAPKLLIYQASKLASGVPSRFSGSGSGAEFSLTISSLQPDDFATYYCQGNFNTGDRYAFGQGTKLTVLGGGGGSGGGGSGGGGSGGGGSEVQLVESGGGLVQPGGSLRLSCTASGFTISRSYWICWVRQAPGKGLEWVACIYGDNDITPLYANWAKGRFPVSTDTSKNTVYLQMNSLRAEDTAVYYCARLGYADYAYDLWGQGTLVTVSS , give its measured signal change in competition ELISA (% reduction in OD) value.
Data returned: -77

Data request: For the binder scFv 903 (scFv) scFv: EIVMTQSPSTLSASVGDRVIITCQASEIIHSWLAWYQQKPGKAPKLLIYLASTLASGVPSRFSGSGSGAEFTLTISSLQPDDFATYYCQNVYLASTNGANFGQGTKLTVLGGGGGSGGGGSGGGGSGGGGSEVQLVESGGGLVQPGGSLRLSCTASGFSLTDYYYMTWVRQAPGKGLEWVGFIDPDDDPYYATWAKGRFTISRDTSKNTVYLQMNSLRAEDTAVYYCAGGDHNSGWGLDIWGQGTLVTVSS , give its measured signal change in competition ELISA (% reduction in OD) value.
Data returned: -80

Source of measurements: patent US20210214461A1
